# Organism: Cavia porcellus
# assay_text: Inhibitory activity for contractions of electrically stimulated guinea pig ileum was determined
# Type: functional, organism-based
# condition_label: read-out: Log 1/IC50 (converted)
Residues, ends and D or L forms follow the SMILES beside them.
Kindly state IC50 for each of the entries shown.
One number for each entry, in nM.

Some compounds with recorded IC50:
INSERT INTO results (compound, assay_endpoint, value) VALUES
  ('C[C@H](NC(=O)[C@@H](N)Cc1ccc(O)cc1)C(=O)NCC(=O)N[C@@H](Cc1ccccc1)C(=O)N[C@@H](CC12CC3CC(CC(C3)C1)C2)C(N)=O (HELM PEPTIDE1{Y.A.G.F.[O=C([C@H](CC12CC3CC(CC(C3)C1)C2)N[*:1])[*:2]].[am]}$$$$V2.0)', 'IC50', 6.03),
  ('C[C@H](NC(=O)[C@@H](N)Cc1ccc(O)cc1)C(=O)NCC(=O)N[C@@H](Cc1ccc([N+](=O)[O-])cc1)C(=O)N[C@@H](CC12CC3CC(CC(C3)C1)C2)C(N)=O', 'IC50', 3.8),
  ('CC(C)C[C@H](NC(=O)[C@H](Cc1ccccc1)NC(=O)CNC(=O)[C@H](C)NC(=O)[C@@H](N)Cc1ccc(O)cc1)C(N)=O', 'IC50', 11.2),
  ('C[C@H](NC(=O)[C@@H](N)Cc1ccc(O)cc1)C(=O)NCC(=O)N[C@@H](Cc1ccc([N+](=O)[O-])cc1)C(=O)N[C@@H](CCC(C)(C)C)C(N)=O', 'IC50', 1.91),
  ('CSCC[C@H](NC(=O)[C@H](Cc1ccccc1)NC(=O)CNC(=O)[C@H](C)NC(=O)[C@@H](N)Cc1ccc(O)cc1)C(N)=O', 'IC50', 11.5);

Field: next compound
Lookup: Provide measured IC50 value, entry: COc1ccc(C[C@H](N)C(=O)N[C@@H](C)C(=O)NCC(=O)N[C@@H](Cc2ccc([N+](=O)[O-])cc2)C(=O)N[C@@H](CCSC)C(N)=O)cc1
Found: 2.29
